Test: In-vivo pharmacokinetics of compounds in SD rats
Conditions: rat, plasma, intravenous, 1 mg/kg

>  <compound>
CC[C@@]1(O)C(=O)OCc2c1cc1n(c2=O)Cc2c-1nc1cc(F)c(C)c3c1c2[C@@H](NC(=O)CO)CC3

>  <clearance / mL/min/kg>
69.2

$$$$

---

Experiment: Metabolism stability test in liver microsomes
Type: in vitro ADME
Conditions: pH 7.4; human liver microsomes, NADPH, 37° C.
Listed here: items and their measured half-life.

>  <compound>
CC[C@@]1(O)C(=O)OCc2c1cc1n(c2=O)Cc2c-1nc1cc(F)c(C)c3c1c2[C@@H](NC(=O)CO)CC3

>  <half-life (h)>
1.69

$$$$
>  <compound>
C=CCN(CCO)C(=O)N[C@H]1CCc2c(C)c(F)cc3nc4c(c1c23)Cn1c-4cc2c(c1=O)COC(=O)[C@]2(O)CC

>  <half-life (h)>
0.877

$$$$
